# EXPERIMENTAL_DETAILS: Plasma clearance in CD-1 mouse at 0.2 mg/kg, iv and measured upto 24 hrs
# Format: ADME, organism-based
MEASURE_NAME: clearance (L/h/kg)

> print(dat)
                                     smiles  result.number
1  Cn1cc(-c2ccc(CNc3cc(-c4cnc5cc(OCCCN6CCCC6)ccn45)ncn3)cc2)cn1            1.1

---

# TESTED_ON: hERG (KCNH2) potassium channel (Homo sapiens, UniProt Q12809)
# Sequence (Q12809 whole entry): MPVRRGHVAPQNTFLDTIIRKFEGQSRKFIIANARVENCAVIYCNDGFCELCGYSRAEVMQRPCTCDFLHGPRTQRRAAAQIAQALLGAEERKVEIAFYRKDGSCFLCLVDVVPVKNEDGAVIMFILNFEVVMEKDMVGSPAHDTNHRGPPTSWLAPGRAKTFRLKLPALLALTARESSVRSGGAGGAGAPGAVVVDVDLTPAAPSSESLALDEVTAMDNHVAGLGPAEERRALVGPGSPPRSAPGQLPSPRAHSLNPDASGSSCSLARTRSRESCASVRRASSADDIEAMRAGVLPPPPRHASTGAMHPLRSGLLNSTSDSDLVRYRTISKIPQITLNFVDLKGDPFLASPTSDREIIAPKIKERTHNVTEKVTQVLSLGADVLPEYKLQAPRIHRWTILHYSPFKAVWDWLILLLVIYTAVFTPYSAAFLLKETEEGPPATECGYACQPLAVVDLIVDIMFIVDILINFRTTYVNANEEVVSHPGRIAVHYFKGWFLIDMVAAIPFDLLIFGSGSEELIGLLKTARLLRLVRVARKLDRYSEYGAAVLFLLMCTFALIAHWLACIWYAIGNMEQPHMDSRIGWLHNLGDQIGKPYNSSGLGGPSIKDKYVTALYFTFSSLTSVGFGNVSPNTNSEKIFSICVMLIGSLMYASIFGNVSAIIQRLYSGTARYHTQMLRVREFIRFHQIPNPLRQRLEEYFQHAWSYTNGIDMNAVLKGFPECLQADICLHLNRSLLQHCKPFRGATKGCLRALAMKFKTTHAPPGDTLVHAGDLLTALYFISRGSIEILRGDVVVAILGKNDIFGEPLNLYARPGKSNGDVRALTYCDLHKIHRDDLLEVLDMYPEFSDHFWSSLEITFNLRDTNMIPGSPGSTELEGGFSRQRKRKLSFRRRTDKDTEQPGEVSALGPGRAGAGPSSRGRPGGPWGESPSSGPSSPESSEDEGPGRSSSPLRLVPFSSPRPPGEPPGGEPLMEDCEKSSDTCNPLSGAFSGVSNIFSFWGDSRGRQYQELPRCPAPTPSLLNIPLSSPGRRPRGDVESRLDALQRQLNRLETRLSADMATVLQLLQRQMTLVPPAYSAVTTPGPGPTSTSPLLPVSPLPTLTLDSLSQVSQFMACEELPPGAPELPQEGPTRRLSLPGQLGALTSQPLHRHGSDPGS
# EXPERIMENTAL_DETAILS: Inhibition of human ERG potassium channel transfected in HEK293 cells at holding potential -80 mV at 10 uM and measured for 5 mins by whole cell patch clamp assay
# Format: toxicity, cell-based
# CONDITION_SUMMARY: HEK293 cells transfected with hERG
Response key: 1 means inhibition at 5 min, 10 µM >= -20%; 0 means inhibition at 5 min, 10 µM < -20%.

> print(dat)
                                   molecule  group
1  Cn1cc(-c2ccc(CNc3cc(-c4cnc5cc(OCCN6CCCC6)ccn45)ncn3)cc2)cn1      0
2  Cn1cc(-c2ccc(CNc3cc(-c4cnc5cc(OCCCN6CCCC6)ccn45)ncn3)cc2)cn1 [IDRX-42]      0
3  c1ccn2c(-c3cncc(NCc4ccc(N5CCCC5)nc4)c3)cnc2c1      1
4  CN1CC(COc2ccn3c(-c4cc(NCc5ccc(-c6cnn(C)c6)cc5)ncn4)cnc3c2)C1      0
5  CN(C)CCCOc1ccn2c(-c3cc(NCc4ccc(-c5cnn(C)c5)cc4)ncn3)cnc2c1      0
6  Cn1cc(-c2ccc(CNc3cc(-c4cnc5cc(OCCO)ccn45)ncn3)cc2)cn1      0
7  COCCOc1ccn2c(-c3cc(NCc4ccc(-c5cnn(C)c5)cc4)ncn3)cnc2c1      1
8  Cn1cc(-c2ccc(CNc3cc(-c4cnc5cc(OCCN6CCC(C)(C#N)CC6)ccn45)ncn3)cc2)cn1      1
9  Cn1cc(-c2ccc(CNc3cc(-c4cnc5cc(OCCCNC6COC6)ccn45)ncn3)cc2)cn1      1
